Numbers sourced from PubChem BioAssay (NCATS).

protocol details: Primary qHTS for Huh7 cytotoxicity: counterscreen for inhibitors of MERS-S pseudotyped particle cell entry (AID 1479147)
condition context: cell viability read-out; series mostly up to 57.1 µM
Records with an inconclusive call do not appear. Activity calls are given as the source filed them. Calls follow the shape of the full dose curve.
property: outcome

Consider the following illustrative entries.
molecule	recorded result
CCOC(=O)Nc1ccc2c(c1)N(C(=O)CCN1CCOCC1)c1ccccc1S2	inactive
OCCOc1ccccc1	inactive
COc1ccccc1OCC(O)COC(N)=O (stereo not given)	inactive
CCC(=O)O[C@H]1[C@H](O[C@@H]2[C@@H](C)[C@H](O[C@H]3C[C@@](C)(OC)[C@@H](O)[C@H](C)O3)[C@@H](C)C(=O)O[C@H](CC)[C@@](C)(O)[C@H](O)[C@@H](C)C(=O)[C@H](C)C[C@@]2(C)O)O[C@H](C)C[C@@H]1N(C)C	inactive
CCOC(=O)N1CCC(=C2c3ccc(Cl)cc3CCc3cccnc32)CC1	inactive

Fill blank: measured outcome of the molecule O=C(O)COCCN1CCN(C(c2ccccc2)c2ccc(Cl)cc2)CC1 (stereo not given) is ____.
inactive

Fill blank: measured outcome of the molecule CCOC(=O)[C@H](CCc1ccccc1)N[C@@H](C)C(=O)N1Cc2ccccc2C[C@H]1C(=O)O is ____.
inactive

Fill blank: measured outcome of the molecule CC(c1cc2ccccc2s1)N(O)C(N)=O (stereo not given) is ____.
inactive

Fill blank: measured outcome of the molecule O=C1CCc2cc(OCCCCc3nnnn3C3CCCCC3)ccc2N1 is ____.
inactive

Fill blank: measured outcome of the molecule CCC(COC(=O)c1cc(OC)c(OC)c(OC)c1)(c1ccccc1)N(C)C (stereo not given) is ____.
inactive

Fill blank: measured outcome of the molecule CN(C)c1cc(NC(=O)CNC(C)(C)C)c(O)c2c1C[C@@H]1C[C@H]3[C@H](N(C)C)C(=O)C(C(N)=O)=C(O)[C@@]3(O)C(=O)C1=C2O is ____.
inactive

Fill blank: measured outcome of the molecule CC(C)(C)C(=O)OCOP(=O)(COCCn1cnc2c(N)ncnc21)OCOC(=O)C(C)(C)C is ____.
inactive

###

Known max response of a selection of molecules
protocol details: qHTS Assay for Lipid Storage Modulators (AID 1519)
condition context: Drosophila S3 cells, BODIPY lipid droplet/cell ratio, laser cytometry; measured here: lipid channel max response; cells loaded with oleic acid
Results filed as inconclusive are left out.
Enter your answer as a number in %; do not include the unit.

Consider the following illustrative entries.
>>> print(df.to_string())
                                   molecule  recorded_result
0             CN(C)CCN(C)CCc1ccc(Cl)c(Cl)c1             4.59
1          CC(C)=CCOc1c2occc2cc2ccc(=O)oc12             25.6
2  CC(=O)[C@H]1CC[C@H]2[C@@H]3CC[C@H]4C[C@H](O)CC[C@]4(C)[C@H]3C(=O)C[C@]12C             15.5

Fill blank: measured max response of the molecule Cc1cc2c(C(C)C)c(O)c(O)c(C=O)c2c(O)c1-c1c(C)cc2c(C(C)C)c(O)c(O)c(C=O)c2c1O is ____.
-19.7

Fill blank: measured max response of the molecule Fc1ccc(C(OCCN2CCN(CCCc3ccccc3)CC2)c2ccc(F)cc2)cc1 is ____.
-16.6

Fill blank: measured max response of the molecule CC(C)=CC1C(C(=O)OCc2cccc(Oc3ccccc3)c2)C1(C)C (stereo unspecified) is ____.
23.2

Fill blank: measured max response of the molecule CCC1(C2=NCCN2)Cc2ccccc2O1 (stereo unspecified) is ____.
-2.07

Fill blank: measured max response of the molecule Cc1ccc(S(=O)(=O)N[C@@H](CCCCN)C(=O)CCl)cc1 is ____.
0.09

Fill blank: measured max response of the molecule c1ccc2c(c1)OCC(C1=NCCN1)O2 (stereo unspecified) is ____.
9.22

Fill blank: measured max response of the molecule CC(C)CC(N(C)C)C1(c2ccc(Cl)cc2)CCC1 (stereo unspecified) is ____.
6.62

Fill blank: measured max response of the molecule CC[N+]1(C)CCCC(OC(=O)C(O)(c2ccccc2)c2ccccc2)C1 (stereo unspecified) is ____.
23.3

###

System: MKL-2
protocol details: qHTS assay to identify novel small-molecules to repurpose for Merkel cell carcinoma treatment (AID 1296009); also: nearly all actives have a fitted effect of over 60% in size
condition context: MCC and control cell lines, CellTiter-Glo viability, 72 h; series mostly up to 46 µM
Records with an inconclusive call do not appear. The source made the active and inactive calls. The call rests on the fitted dose curve; in most records, active means well fitted inhibition curve with a large enough effect; inconclusive means small, poorly fitted or top-dose-only effect; inactive means flat fitted curve, though single readings scatter.
Valid outcomes are listed here; reply with one: 1 for active, 0 for inactive

Some entries whose results are on file:
                                   molecule  answer_label
0  O=C(NC(O)C(Cl)(Cl)Cl)NC(O)C(Cl)(Cl)Cl (stereo unspecified)             0
1      CC1OC(C)OC(C)O1 (stereo unspecified)             0
2         COC[C@@H](NC(C)=O)C(=O)NCc1ccccc1             0
3  CO[C@]12CC[C@@]3(C[C@@H]1[C@](C)(O)C(C)(C)C)[C@@H]1Cc4ccc(O)c5c4[C@@]3(CCN1CC1CC1)[C@H]2O5             1
4  c1ccc2c(c1)OCC(C1=NCCN1)O2 (stereo unspecified)             1
5                          CC[N+](CC)(CC)CC             0
6  CN1CCN(C(=O)O[C@H]2c3nccnc3C(=O)N2c2ccc(Cl)cn2)CC1             0
7  O=c1[nH]c2ccccc2n1CCCN1CCC(n2c(=O)[nH]c3cc(Cl)ccc32)CC1             0

Outcome logged for C[C@]12CCC(=O)C(O)=C1CC[C@@H]1[C@@H]2CC[C@]2(C)C(=O)CC[C@@H]12 in this assay:
0

Outcome logged for C=CCN1CC[C@]23c4c5ccc(O)c4O[C@H]2C(=O)CC[C@@]3(O)[C@H]1C5 in this assay:
0

Outcome logged for c1ccc(C2CC2)c(OCC2=NCCN2)c1 in this assay:
0

###

protocol details: qHTS for Inhibitors of the Functional Ribonucleoprotein Complex (vRNP) of Lassa (LASV) Arenavirus: Viability assay - alamar blue signal for LASV Primary Screen (AID 1347083); also: nearly all actives have a fitted effect of over 80% in size
condition context: cell viability, alamar blue fluorescence (LASV minigenome counter-screen); series mostly up to 57.5 µM
Results filed as inconclusive are left out. Activity calls are given as the source filed them. Calls come from the whole dose curve; tested in HEK293 reporter line.
Valid outcomes are listed here; reply with one: True for active, False for inactive

In [3]: df
Out[3]:
                                   molecule  answer_label
0  O=C(OC1C[C@H]2CC[C@@H](C1)[N+]21CCCC1)C(O)(c1ccccc1)c1ccccc1 (stereo partly specified)         False
1  CN1CCN(C(=O)O[C@H]2c3nccnc3C(=O)N2c2ccc(Cl)cn2)CC1         False
2           COc1cc(Cc2cnc(N)nc2N)cc(OC)c1OC         False
3  CC(C)n1c(C=C[C@H](O)C[C@H](O)CC(=O)O)c(-c2ccc(F)cc2)c2ccccc21          True
4                  CCCN[C@H]1CCc2nc(N)sc2C1         False

Now for a further molecule.
Outcome logged for COc1cc2nc(N3CCN(C(=O)C4CCCO4)CC3)nc(N)c2cc1OC (stereo unspecified) in this assay:
False

###

System: Zika virus NS2B-NS3 protease (linked construct)
protocol details: Primary screen NINDS Rhodamine qHTS for Zika virus inhibitors (AID 1347160); also: nearly all actives have a fitted effect of over 55% in size
condition context: purified NS2B-NS3 protease, Rhodamine110 substrate fluorescence; series mostly up to 57.1 µM
Results filed as inconclusive are left out. Active and inactive are the calls of the source. Calls come from the whole dose curve; as a rule, active = well fitted inhibition curve with a large enough effect; inconclusive = small, poorly fitted or top-dose-only effect; inactive = no such curve, though single readings can be large or run the other way.
Valid outcomes are listed here; reply with one: Yes = active, No = inactive

Some entries whose results are on file:
compound	tgt	answer label
NCC(O)c1ccc(O)cc1 (stereo not drawn)	Zika virus NS2B-NS3 protease (linked construct)	No
O=C(O)C(=O)c1cn(Cc2ccccc2)c2ccc(-c3ccc(OC(F)(F)F)cc3)cc12	Zika virus NS2B-NS3 protease (linked construct)	Yes
C[C@@H]1O[C@@H](O[C@H]2C[C@@H](O)[C@]3(CO)[C@H]4[C@H](O)C[C@]5(C)[C@@H](C6=CC(=O)OC6)CC[C@]5(O)[C@@H]4CC[C@]3(O)C2)[C@H](O)[C@H](O)[C@H]1O	Zika virus NS2B-NS3 protease (linked construct)	No
C[C@H]1O[C@@H](O[C@H]2[C@@H](O)C[C@H](O[C@H]3[C@@H](O)C[C@H](O[C@H]4CC[C@@]5(C)[C@H](CC[C@@H]6[C@@H]5CC[C@]5(C)[C@@H](C7=CC(=O)OC7)CC[C@]65O)C4)O[C@@H]3C)O[C@@H]2C)C[C@H](O)[C@@H]1O	Zika virus NS2B-NS3 protease (linked construct)	No

Outcome logged for COC[C@H]1OC(=O)c2coc3c2[C@@]1(C)C1=C(C3=O)C2CCC(=O)[C@@]2(C)C[C@H]1OC(C)=O (stereo partly drawn) in this assay:
No

Outcome logged for CC(O)(CS(=O)(=O)c1ccc(F)cc1)C(=O)Nc1ccc(C#N)c(C(F)(F)F)c1 (stereo not drawn) in this assay:
No

Outcome logged for CNC(=O)N1N=C(c2ccc(N)cc2)c2cc3c(cc2CC1C)OCO3 (stereo not drawn) in this assay:
No

Outcome logged for O=c1[nH]c2ccccc2n1C1CCN(CCCC(c2ccc(F)cc2)c2ccc(F)cc2)CC1 in this assay:
No
